B1: Hairpin Ribozyme (parent)
chain: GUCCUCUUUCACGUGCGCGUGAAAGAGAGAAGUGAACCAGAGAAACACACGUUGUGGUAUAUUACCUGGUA

Variants of: B1
run-description: self-cleavage, relative activity (ratio to wild type); higher = more cleavage; co-transcriptional
quantity-name: self-cleavage
Give bare numbers.

A22C G27U | 0.411
A23U G56A | 0.237
C6U U58A | 0.66
A11C C50A | 0.288
A39U U62G | 0.088
A26G U70C | 0.89

Give self-cleavage for each of the items listed below.
1. U5A A26G
2. G56U A61G
3. U5G U52A
4. A28U A44C

[0.244, 0.178, 0.444, 0.179]
